# Tested on: SHP2-C SH2;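 note: peptide library displayed on the E. coli surface as eCPX fusions, selected cells deep-sequenced, score is each peptide's frequency after selection divided by its frequency in the input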
# Method: SH2 binding enrichment of the phosphorylated peptide, bacterial display (enrichment ratio); higher = better substrate or ligand; peptides without Tyr show the background
Test readout: SH2 binding enrichment

1) YETDYYRKGGK [INSR_Y1190]: 0.676

a = WTAHSYRMGST [ARHGEF7_Y785]
b = PVQDAYQKVVA [HBB_Y131_A129D]
c = GGYTCCCDGKK [PROS1_Y266_Y266C]
d = SNNYIYTTLGV [FAM83B_Y639_K640T]
Request: List by increasing SH2 binding enrichment. Please reply with the labels ordered as requested. Many thanks.
Result: c, a, b, d
(c: 0.415, a: 0.651, b: 0.956, d: 2.71)
